Target: T1, human GLP-2 receptor (human, UniProt O95838 1-553)
T1 sequence (looked up): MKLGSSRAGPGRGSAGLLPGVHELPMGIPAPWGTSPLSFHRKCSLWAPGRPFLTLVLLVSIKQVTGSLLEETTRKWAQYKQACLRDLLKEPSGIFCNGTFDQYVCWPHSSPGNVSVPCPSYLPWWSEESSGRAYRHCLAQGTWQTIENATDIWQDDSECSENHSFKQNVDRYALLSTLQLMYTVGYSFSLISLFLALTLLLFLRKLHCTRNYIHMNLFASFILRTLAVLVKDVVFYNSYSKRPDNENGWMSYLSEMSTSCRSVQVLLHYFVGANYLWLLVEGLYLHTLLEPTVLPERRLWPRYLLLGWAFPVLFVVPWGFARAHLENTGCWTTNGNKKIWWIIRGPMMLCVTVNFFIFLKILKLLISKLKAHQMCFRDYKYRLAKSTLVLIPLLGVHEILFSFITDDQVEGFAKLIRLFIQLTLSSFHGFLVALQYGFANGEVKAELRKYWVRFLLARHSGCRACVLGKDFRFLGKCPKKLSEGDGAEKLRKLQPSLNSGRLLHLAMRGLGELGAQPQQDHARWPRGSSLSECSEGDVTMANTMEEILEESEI
Assay: cell-based or functional assay
Ends that are not written are not given here. * marks the point of attachment. Palmitoyl = CCCCCCCCCCCCCCCC(=O)*; Lauroyl = CCCCCCCCCCCC(=O)*
For each entry below, report its EC50 (cAMP) value.
Write the answer as a number in nM, unit excluded.

For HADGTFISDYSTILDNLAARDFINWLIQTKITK (C12 acyl group on Lys 33 (K(C12/33), 'with C12 pos 33')) [GIP-GLP-2 co-agonist 32] , what is its reported EC50 (cAMP)?
6.2

For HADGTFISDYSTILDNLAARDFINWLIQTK(Lauroyl)ITK [GIP-GLP-2 co-agonist 30] , what is its reported EC50 (cAMP)?
36

For HADGTFSSDYSTILDNLAAK(Palmitoyl)DFINWLIQTKITD [GIP-GLP-2 co-agonist 21] , what is its reported EC50 (cAMP)?
6

For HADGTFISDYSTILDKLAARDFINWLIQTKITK [GIP-GLP-2 co-agonist 26] , what is its reported EC50 (cAMP)?
0.31

For HADGTFISDYSTIKDNLAARDFINWLIQTKITK [GIP-GLP-2 co-agonist 25] , what is its reported EC50 (cAMP)?
3.5

For HADGTFISDYSTILDNLKARDFINWLIQTKITK [GIP-GLP-2 co-agonist 27] , what is its reported EC50 (cAMP)?
0.56
